TARGET ENTITY: human JAK3 (a.a. 781-1124) (Homo sapiens, UniProt P52333)
Sequence (P52333 781-1124): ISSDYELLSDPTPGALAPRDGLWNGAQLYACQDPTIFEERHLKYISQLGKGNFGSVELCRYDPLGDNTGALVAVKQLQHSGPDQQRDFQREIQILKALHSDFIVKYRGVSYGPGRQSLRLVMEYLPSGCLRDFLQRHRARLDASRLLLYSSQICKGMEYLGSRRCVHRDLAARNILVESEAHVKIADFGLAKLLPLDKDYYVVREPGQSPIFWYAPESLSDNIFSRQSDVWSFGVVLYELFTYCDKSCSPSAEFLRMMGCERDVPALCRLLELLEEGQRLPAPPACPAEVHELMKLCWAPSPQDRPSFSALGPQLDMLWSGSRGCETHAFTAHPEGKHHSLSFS
pIC50: −log10 of the molar value.
Each item that follows carries a reported pIC50.

# COMPOUND, TARGET ENTITY, pIC50
data = [
    ("Cc1ccc(NC(=O)c2cc(-n3cnc(CO)c3)cc(C(F)(F)F)c2)cc1-c1ccc2c(c1)[nH]c1ncncc12 [Example 21, bis(trifluoroacetate)]", "human JAK3 (a.a. 781-1124) (Homo sapiens, UniProt P52333)", "≥ 6.30"),
    ("O=C(Nc1ccc(F)c(-c2ccc3c(c2)[nH]c2ncncc23)c1)c1cccc(C(F)(F)F)c1", "human JAK3 (a.a. 781-1124) (Homo sapiens, UniProt P52333)", "≥ 6.30"),
    ("Cc1ccc(C(=O)NCc2cc(F)ccc2F)cc1-c1ccc2c(c1)[nH]c1ncncc12", "human JAK3 (a.a. 781-1124) (Homo sapiens, UniProt P52333)", "≥ 6.30"),
]

Turning now to a further record.
Documented pIC50 of "COc1ccc(C(=O)Nc2cccc(C(F)(F)F)c2)cc1-c1ccc2c(c1)[nH]c1ncncc12" : 6.00 to 6.30

###

Tested on: JAK2_INA61 (cancer cell line dependent on cytokines and JAK/STAT signal transduction)
METHOD SUMMARY: Cellular assay: viability of cytokine-dependent cancer cell line (CellTiter-Glo)
Type: cell-based
RECORDED CONDITIONS: 72 hours, read-out: EXAMPLE B JAK2_INA61 IC50
pIC50: −log10 of the molar value.
Each item that follows carries a reported pIC50.

Answered examples (5):
# INPUT SMILES, pIC50
measured = [
    ("N#Cc1ccc(C(=O)Nc2cccc(C(F)(F)F)c2)cc1-c1ccc2c(c1)[nH]c1ncncc12", "< 6.00"),
    ("Cc1ccc(NC(=O)c2cc(C(F)(F)F)cc(Cl)c2F)cc1-c1ccc2[nH]c3ncncc3c2c1", "< 6.00"),
    ("Cc1ccc(NC(=O)c2cccc(F)c2)cc1-c1ccc2c(c1)[nH]c1ncncc12", "6.00 to 6.30"),
    ("Cc1cnc(NC(=O)c2ccc(C)c(-c3ccc4c(c3)[nH]c3ncncc34)c2)s1", "< 6.00"),
    ("Cc1ccc(NC(=O)c2cccc(F)c2)cc1-c1ccc2[nH]c3ncncc3c2c1", "< 6.00"),
]

Documented pIC50 of "Cc1ccc(C(=O)Nc2cccc(S(F)(F)(F)(F)F)c2)cc1-c1ccc2c(c1)[nH]c1ncncc12" : 6.00 to 6.30

Documented pIC50 of "O=C(Nc1ccc(F)c(-c2ccc3c(c2)[nH]c2ncncc23)c1)c1cccc(C(F)(F)F)c1" : ≥ 6.30

Documented pIC50 of "Cc1cn(-c2cc(NC(=O)c3ccc(C)c(-c4ccc5c(c4)[nH]c4ncncc45)c3)cc(C(F)(F)F)c2)cn1" : 6.00 to 6.30

Documented pIC50 of "COc1ccc(C(=O)Nc2cccc(C(F)(F)F)c2)cc1-c1ccc2c(c1)[nH]c1ncncc12" : < 6.00

Documented pIC50 of "Cc1ccc(C(=O)N[C@H](C)c2ccccc2)cc1-c1ccc2c(c1)[nH]c1ncncc12" : < 6.00

###

A short record of IC50 observed with human JAK1 (a.a. 837-1142) (Homo sapiens) follows.

Answered examples (3):
# INPUT SMILES, VALUE KIND, RESULT
rows = [
    ("N#Cc1ccc(C(=O)Nc2cccc(C(F)(F)F)c2)cc1-c1ccc2c(c1)[nH]c1ncncc12", "IC50", "≤ 500 nM"),
    ("Cc1ccc(C(=O)NCc2cc(F)ccc2F)cc1-c1ccc2c(c1)[nH]c1ncncc12", "IC50", "> 1000 nM"),
    ("Cc1ccc(C(=O)Nc2cccc(S(F)(F)(F)(F)F)c2)cc1-c1ccc2c(c1)[nH]c1ncncc12", "IC50", "≤ 500 nM"),
]

Turning now to a further record.
Documented IC50 of "Cc1ccc(NC(=O)c2ccc(F)c(C(F)(F)F)c2)cc1-c1ccc2c(c1)[nH]c1ncncc12" : ≤ 500 nM

###

TARGET ENTITY: human JAK1 (a.a. 837-1142) (Homo sapiens, UniProt P23458)
Sequence (P23458 849-1154): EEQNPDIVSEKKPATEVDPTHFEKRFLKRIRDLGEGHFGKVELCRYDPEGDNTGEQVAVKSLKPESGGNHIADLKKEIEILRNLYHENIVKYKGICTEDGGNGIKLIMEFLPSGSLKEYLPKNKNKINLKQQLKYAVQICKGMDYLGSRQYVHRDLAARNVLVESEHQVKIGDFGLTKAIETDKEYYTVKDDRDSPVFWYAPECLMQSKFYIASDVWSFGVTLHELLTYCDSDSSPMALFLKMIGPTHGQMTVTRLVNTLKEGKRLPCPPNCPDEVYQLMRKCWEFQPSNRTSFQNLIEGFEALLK
VALUE KIND: IC50

Answered examples (2):
# COMPOUND, TARGET ENTITY, IC50
rows = [
    ("Cc1ccc(C(=O)N[C@@H](C)c2ccccc2)cc1-c1ccc2c(c1)[nH]c1ncncc12", "human JAK1 (a.a. 837-1142) (Homo sapiens, UniProt P23458)", "> 1000 nM"),
    ("Cc1ccc(NC(=O)c2cc(-n3cnc(CO)c3)cc(C(F)(F)F)c2)cc1-c1ccc2c(c1)[nH]c1ncncc12 [Example 21, bis(trifluoroacetate)]", "human JAK1 (a.a. 837-1142) (Homo sapiens, UniProt P23458)", "≤ 500 nM"),
]

// assay human JAK1 (a.a. 837-1142) (Homo sapiens, UniProt P23458), entry "CNCc1cn(-c2cc(C(=O)Nc3ccc(C)c(-c4ccc5c(c4)[nH]c4ncncc45)c3)cc(C(F)(F)F)c2)cn1" , IC50 value = ≤ 500 nM

// assay human JAK1 (a.a. 837-1142) (Homo sapiens, UniProt P23458), entry "Cc1ccc(NC(=O)c2cc(NCCCn3ccnc3)cc(C(F)(F)F)c2)cc1-c1ccc2c(c1)[nH]c1ncncc12" , IC50 value = ≤ 500 nM

###

Test system: JAK2_INA61 (cancer cell line dependent on cytokines and JAK/STAT signal transduction)
METHOD SUMMARY: Cellular assay: viability of cytokine-dependent cancer cell line (CellTiter-Glo)
Type: cell-based
RECORDED CONDITIONS: 72 hours, read-out: EXAMPLE B JAK2_INA61 IC50
pIC50: −log10 of the molar value.
VALUE KIND: pIC50

Answered examples (3):
# COMPOUND, pIC50
rows = [
    ("Cc1ccc(C(=O)N[C@@H](C)c2ccccc2)cc1-c1ccc2c(c1)[nH]c1ncncc12", "< 6.00"),
    ("Cc1ncc(NC(=O)c2cccc(C(F)(F)F)c2)cc1-c1ccc2c(c1)[nH]c1ncncc12", "6.00 to 6.30"),
    ("O=C(Nc1cccc(C(F)(F)F)c1)c1cccc(-c2ccc3c(c2)[nH]c2ncncc23)c1", "< 6.00"),
]

// assay JAK2_INA61 (cancer cell line dependent on cytokines and JAK/STAT signal transduction), entry "O=C(Nc1cccc(C(F)(F)F)c1)c1ccc(Cl)c(-c2ccc3c(c2)[nH]c2ncncc23)c1" , pIC50 value = 6.00 to 6.30

// assay JAK2_INA61 (cancer cell line dependent on cytokines and JAK/STAT signal transduction), entry "Cc1cccc(NC(=O)c2ccc(C)c(-c3ccc4c(c3)[nH]c3ncncc34)c2)c1" , pIC50 value = 6.00 to 6.30

// assay JAK2_INA61 (cancer cell line dependent on cytokines and JAK/STAT signal transduction), entry Cc1cn(-c2cc(C(=O)Nc3ccc(C)c(-c4ccc5c(c4)[nH]c4ncncc45)c3)cc(C(F)(F)F)c2)cn1 [Example 2, bis(trifluoroacetate)] , pIC50 value = 6.00 to 6.30

// assay JAK2_INA61 (cancer cell line dependent on cytokines and JAK/STAT signal transduction), entry "Cc1ccc(NC(=O)c2cc(NCCN(C)C)cc(C(F)(F)F)c2)cc1-c1ccc2c(c1)[nH]c1ncncc12" , pIC50 value = 6.00 to 6.30

// assay JAK2_INA61 (cancer cell line dependent on cytokines and JAK/STAT signal transduction), entry "Cc1ccc(C(=O)NCc2cc(F)ccc2F)cc1-c1ccc2c(c1)[nH]c1ncncc12" , pIC50 value = 6.00 to 6.30

###

TARGET ENTITY: TF1-BCRABL1 cells (Homo sapiens)
Sequence (P00519 whole entry, change not shown): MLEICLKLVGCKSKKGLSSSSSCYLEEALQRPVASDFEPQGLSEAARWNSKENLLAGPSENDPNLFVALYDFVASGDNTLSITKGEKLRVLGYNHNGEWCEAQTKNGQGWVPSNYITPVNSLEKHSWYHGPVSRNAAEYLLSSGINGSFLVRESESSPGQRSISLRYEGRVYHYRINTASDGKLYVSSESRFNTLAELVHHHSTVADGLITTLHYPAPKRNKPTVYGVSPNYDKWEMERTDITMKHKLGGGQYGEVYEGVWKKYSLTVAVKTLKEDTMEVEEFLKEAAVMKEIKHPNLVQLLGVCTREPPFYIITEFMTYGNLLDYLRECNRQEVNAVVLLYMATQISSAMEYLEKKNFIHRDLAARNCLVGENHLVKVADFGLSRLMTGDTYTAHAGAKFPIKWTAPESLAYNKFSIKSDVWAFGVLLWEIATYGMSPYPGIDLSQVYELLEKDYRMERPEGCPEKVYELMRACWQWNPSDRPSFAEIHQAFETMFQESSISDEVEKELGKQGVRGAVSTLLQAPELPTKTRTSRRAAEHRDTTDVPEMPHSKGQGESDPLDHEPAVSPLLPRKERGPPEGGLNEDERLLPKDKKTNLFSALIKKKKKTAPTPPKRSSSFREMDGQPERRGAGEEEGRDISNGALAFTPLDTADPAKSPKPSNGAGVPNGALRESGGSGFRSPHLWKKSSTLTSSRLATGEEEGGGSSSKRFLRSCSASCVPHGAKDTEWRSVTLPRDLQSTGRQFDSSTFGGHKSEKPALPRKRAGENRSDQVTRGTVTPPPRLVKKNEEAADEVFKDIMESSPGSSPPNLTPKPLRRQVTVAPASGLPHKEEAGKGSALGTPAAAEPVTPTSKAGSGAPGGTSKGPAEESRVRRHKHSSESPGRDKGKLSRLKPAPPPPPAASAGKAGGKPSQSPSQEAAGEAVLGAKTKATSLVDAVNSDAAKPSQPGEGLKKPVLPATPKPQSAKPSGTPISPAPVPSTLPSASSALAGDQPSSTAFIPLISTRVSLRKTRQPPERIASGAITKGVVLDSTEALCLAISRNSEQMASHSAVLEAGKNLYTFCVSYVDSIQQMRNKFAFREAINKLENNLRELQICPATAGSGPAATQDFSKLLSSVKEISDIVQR
METHOD SUMMARY: ABL1 cell based assay: viability of ABL1-dependent cell line (CellTiter-Glo)
RECORDED CONDITIONS: 72 hours, cell viability; read-out: EXAMPLE F JAK2-TF1-BCRABL1 IC50
VALUE KIND: GI50

Documented GI50 of Cc1ccc(NC(=O)c2cc(N3CCC(N(C)C)C3)cc(C(F)(F)F)c2)cc1-c1ccc2c(c1)[nH]c1ncncc12 (centres unmarked) : ≤ 500 nM

###

A short record of pIC50 observed with human JAK1 (a.a. 837-1142) (Homo sapiens) follows.
pIC50: −log10 of the molar value. Where a name gives a salt, the structure may show the parent alone.

Answered examples (2):
# COMPOUND, pIC50
data = [
    ("Cc1ncc(NC(=O)c2cc(NCCN(C)C)cc(C(F)(F)F)c2)cc1-c1ccc2c(c1)[nH]c1ncncc12 [Example 76, tris(trifluoroacetate)]", "≥ 6.30"),
    ("Cc1ccc(NC(=O)Nc2cccc(C(F)(F)F)c2)cc1-c1ccc2c(c1)[nH]c1ncncc12", "≥ 6.30"),
]

// assay human JAK1 (a.a. 837-1142) (Homo sapiens), entry Cc1ccc(NC(=O)c2cc(-n3cnc(C=O)c3)cc(C(F)(F)F)c2)cc1-c1ccc2c(c1)[nH]c1ncncc12 [Example 20, trifluoroacetate] , pIC50 value = ≥ 6.30
